All values here come from paper PMC7359024.

# Assay Info: in vitro
# Condition Label: Chinese hamster
Form field: IC50 (one value per entry).

In the examples that follow, each entry is paired with its recorded IC50.
> print(dat)
                                   compound  assay.endpoint  readout.value
1  C[S+]([O-])c1cccc(-c2ccc3c(=O)n(-c4ccc(C(F)(F)F)cc4)c(N)nc3c2)c1 (stereo not shown)            IC50        > 50 µM
2  CS(=O)(=O)c1cccc(-c2ccc3c(=O)n(-c4ccc(C(F)(F)F)cc4)c(N)nc3c2)c1            IC50        > 50 µM
3  CN(C)CCNC(=O)c1cccc(-c2ccc3nc(N)n(-c4ccc(C(F)(F)F)cc4)c(=O)c3c2)c1            IC50        > 50 µM

Proceeding to the next compound to report its IC50.
Enquiry: Look at this compound and give its reported IC50. `Cc1cncc(-c2ccc3nc(N)n(-c4ccc(C(F)(F)F)cc4)c(=O)c3c2)c1`
Return: > 100 µM
